Tested on: Concanavalin-A (Canavalia ensiformis)
Assay comment: compounds binding concanavalin A lectin – biochemical, small-molecule microarray, Alexa647 label, 635 nm, artefact control for SMM control protein annotation, primary screen (AID 1127);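 further: z combines 667 nm emission intensity with signal-to-noise across three replicate slides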
Condition notes: ConA-A647 binding fluorescence, higher = more signal
The following molecules are shown together with reported composite z-score values.

Known results for molecules:
# Structure as smiles, Obs value
rows = [
    ("O=C(NCCN1CCOCC1)[C@@H]1c2ccccc2C(=O)N(Cc2ccccc2Cl)[C@H]1c1ccc(CO)cc1", -1.19),
    ("COCCOC(=O)N1C(=O)[C@@]2(c3cc(C#CC4=CCCCC4)ccc31)[C@H](c1ccccc1OCCO)N1[C@H](c3ccccc3)[C@H](c3ccccc3)OC(=O)[C@H]1[C@@H]2C(=O)N1CCN(c2ncccn2)CC1", 1.06),
]

Which composite z-score value is on record for CC(C)[Si]1(C(C)C)OCc2cc(C3CC3)nc(-c3ccc(Oc4ccccc4)cc3)c21 ?
-0.725

Which composite z-score value is on record for NC(=O)NCC#Cc1ccc2c(c1)[C@]1(C(=O)N2)[C@H](C(=O)N2CCN(c3ncccn3)CC2)[C@H]2C(=O)O[C@H](c3ccccc3)[C@H](c3ccccc3)N2[C@@H]1c1ccc(O)cc1 ?
0.721

Which composite z-score value is on record for COc1ccc([Si](C)(C)[C@H]2[C@H](CC(=O)N(CCO)Cc3ccccc3)O[C@@]3(C(=O)N(C)c4c(Br)cc(C)cc43)[C@@H]2C)cc1 ?
0.652

---

Test system: Sonic hedgehog protein (Shh)
Assay comment: Sonic hedgehog microarray binding compounds – biochemical, small-molecule microarray, 635/667 nm fluorescence, primary screen (AID 1151);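 further: Shh protein binding to compounds spotted on small-molecule microarray slides; score combines spot fluorescence intensity with signal-to-noise across triplicate slides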
Condition notes: 635 nm fluorescence, higher = more signal
// label = met if composite z-score is not less than -0.05, otherwise not met

Known results for compounds:
# Compound, Discrete label
records = [
    ("COCCOC(=O)N1C(=O)[C@@]2(c3cc(C#CC4(O)CCCCCC4)ccc31)[C@H](c1ccc(O)cc1)N1[C@H](c3ccccc3)[C@H](c3ccccc3)OC(=O)[C@H]1[C@@H]2C(=O)N1CCN(c2ncccn2)CC1", "met"),
    ("COC(=O)[C@@]1(Cc2ccc(F)cc2)[C@H]2c3cc(C(=O)N4CCCC4)n(CCc4c[nH]c5ccccc45)c3C[C@H]2CN1C(=O)c1ccccc1", "not met"),
    ("COc1ccc([Si](C)(C)[C@H]2[C@H](CC(=O)N3Cc4ccccc4C[C@H]3CO)O[C@@]3(C(=O)N(Cc4ccc(N5CCOC5=O)cc4)c4ccccc43)[C@@H]2C)cc1", "met"),
    ("CC[C@@H]1O[Si](C(C)C)(C(C)C)c2c1cc(-c1cc(C)c(OC)c(C)c1)nc2-c1ccc(Oc2ccccc2)cc1", "met"),
]

Check if composite z-score >= -0.05 (inclusive). Item: C=CCC(OC(C)=O)[C@@H]1[C@@H](N(Cc2ccc(-c3cccc(C(F)(F)F)c3)o2)C(=O)c2ccc(-c3ccccc3)cc2)c2cc(OCCCO)ccc2N1C(=O)Cc1ccc2ccccc2c1 (stereo partly specified)
not met

Check if composite z-score >= -0.05 (inclusive). Item: COC(=O)[C@@]1(Cc2ccccc2)[C@H]2c3cc(C(=O)N4CCCC4)n(CCc4ccccn4)c3C[C@H]2CN1C(=O)c1ccccc1
met

Check if composite z-score >= -0.05 (inclusive). Item: O=C1C2C=CC(C(O)c3cccc(O)c3)N(Nc3ccc([N+](=O)[O-])cc3)C2C(=O)N1c1ccccc1 (stereo unspecified)
not met

Check if composite z-score >= -0.05 (inclusive). Item: O=C1N(CCS(=O)(=O)c2ccccc2)c2ccccc2[C@H]2OC(c3ccc(OCCCO)cc3)=N[C@@]12Cc1ccccc1
met

Check if composite z-score >= -0.05 (inclusive). Item: CC1CC/C=C\[C@H]2OC34C=CCN(Cc5ccccc5)C(=O)[C@H]3N(C(CO)C(C)C)C(=O)[C@@H]4C2C(=O)O1 (stereo partly specified)
not met

Check if composite z-score >= -0.05 (inclusive). Item: C=C[C@H]1C(C(=O)OCC)=CC[C@@H](c2ccccc2)N1S(=O)(=O)c1ccc(C)cc1
met

Check if composite z-score >= -0.05 (inclusive). Item: C=CCNC(=O)[C@@H]1[C@H]2C(=O)O[C@H](c3ccccc3)[C@H](c3ccccc3)N2[C@H](c2ccccc2OCCO)[C@@]12C(=O)N(C(=O)OCCOC)c1ccc(C#CC3(O)CCCCCC3)cc12
met
